The reported numbers originate from the supplement of paper PMC10065799.

In this section, each of the sequences is paired with its reported phosphorylation enrichment.
# assayed system: Jak2 (UniProt O60674)
# Sequence (O60674 whole entry, looked up): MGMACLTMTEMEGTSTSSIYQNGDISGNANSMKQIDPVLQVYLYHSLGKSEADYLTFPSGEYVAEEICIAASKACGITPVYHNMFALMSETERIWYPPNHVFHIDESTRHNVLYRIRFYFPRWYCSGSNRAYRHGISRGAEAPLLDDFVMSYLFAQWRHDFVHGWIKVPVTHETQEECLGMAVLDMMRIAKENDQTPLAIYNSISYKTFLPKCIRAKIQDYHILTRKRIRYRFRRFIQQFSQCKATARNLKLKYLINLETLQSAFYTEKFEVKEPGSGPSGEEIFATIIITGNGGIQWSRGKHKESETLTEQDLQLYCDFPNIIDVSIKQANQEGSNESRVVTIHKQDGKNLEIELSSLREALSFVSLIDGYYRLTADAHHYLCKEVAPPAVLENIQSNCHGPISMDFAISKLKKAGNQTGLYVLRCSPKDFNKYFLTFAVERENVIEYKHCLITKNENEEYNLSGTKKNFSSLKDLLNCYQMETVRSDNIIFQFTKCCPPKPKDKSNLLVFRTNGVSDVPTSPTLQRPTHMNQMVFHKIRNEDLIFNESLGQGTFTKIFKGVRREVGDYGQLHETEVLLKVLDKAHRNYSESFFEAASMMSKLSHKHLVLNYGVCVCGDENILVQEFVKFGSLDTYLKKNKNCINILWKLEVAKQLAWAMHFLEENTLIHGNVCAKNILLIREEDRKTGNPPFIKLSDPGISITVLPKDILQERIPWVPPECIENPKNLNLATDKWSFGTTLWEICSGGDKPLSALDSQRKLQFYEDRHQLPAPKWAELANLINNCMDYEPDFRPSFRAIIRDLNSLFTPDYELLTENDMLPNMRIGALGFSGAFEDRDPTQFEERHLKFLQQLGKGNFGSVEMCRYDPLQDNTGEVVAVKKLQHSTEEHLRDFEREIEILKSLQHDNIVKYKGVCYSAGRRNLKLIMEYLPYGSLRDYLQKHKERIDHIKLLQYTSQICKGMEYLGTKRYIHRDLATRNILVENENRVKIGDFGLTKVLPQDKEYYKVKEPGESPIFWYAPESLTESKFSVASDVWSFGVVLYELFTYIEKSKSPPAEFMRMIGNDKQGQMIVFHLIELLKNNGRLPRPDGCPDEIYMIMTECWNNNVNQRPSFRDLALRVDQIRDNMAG
# method summary: phosphorylation enrichment, bacterial display (enrichment ratio); higher = better substrate or ligand; peptides without Tyr show the background
Respond numerically, and do not add a unit to the figure.

Sample IVLRSYPASGH [NID2_Y449] — what was its phosphorylation enrichment?
0.682

I have this sequence here, ITVPAYFNDLQ [HSPA9_Y196_S200L] , and I need its recorded phosphorylation enrichment.
1.15

Reported phosphorylation enrichment, sequence SVQVEYMKTIL [GLYATL2_Y127_D126E] : ____
0.612

Need phosphorylation enrichment of VFPIDYFFPPQ [AR_Y552_L548F_YF] , thanks.
2.76

Recorded phosphorylation enrichment for SWVVPYEPPEV [TP53_Y220_V216W] , please?
0.957

Fill in: phosphorylation enrichment of LQEKSYIKGTS [LCTL_Y331] is ___
0.595

Name the recorded phosphorylation enrichment for PFIDSYEKDVA [PGM1_Y521_L516P_YF] .
0.594

Request the reported phosphorylation enrichment associated with EAESWYQTKFE [KRT75_Y342_YF]
0.906

Report phosphorylation enrichment for QRKRAYVEIEY [MAK16_Y282] please.
0.73

Item RLGDLYEEEMR [VIM_Y150] has what recorded phosphorylation enrichment?
0.938

So what's the measured phosphorylation enrichment for this one? YYHCTYKQRMI [CLEC12A_Y242_K244Q]
1.73

Form field: reported phosphorylation enrichment of FSSLGYPPPEG [ZSWIM4_Y87_YF]
0.807

Which phosphorylation enrichment is reported for this sequence? LGSNGYKKLLK [SEPSECS_Y334]
0.59

Field request: phosphorylation enrichment | item: EKSREYDRLYE [PIK3R1_Y463]
0.828

====

# assayed system: Fyn (UniProt P06241)
# Sequence (P06241 whole entry, looked up): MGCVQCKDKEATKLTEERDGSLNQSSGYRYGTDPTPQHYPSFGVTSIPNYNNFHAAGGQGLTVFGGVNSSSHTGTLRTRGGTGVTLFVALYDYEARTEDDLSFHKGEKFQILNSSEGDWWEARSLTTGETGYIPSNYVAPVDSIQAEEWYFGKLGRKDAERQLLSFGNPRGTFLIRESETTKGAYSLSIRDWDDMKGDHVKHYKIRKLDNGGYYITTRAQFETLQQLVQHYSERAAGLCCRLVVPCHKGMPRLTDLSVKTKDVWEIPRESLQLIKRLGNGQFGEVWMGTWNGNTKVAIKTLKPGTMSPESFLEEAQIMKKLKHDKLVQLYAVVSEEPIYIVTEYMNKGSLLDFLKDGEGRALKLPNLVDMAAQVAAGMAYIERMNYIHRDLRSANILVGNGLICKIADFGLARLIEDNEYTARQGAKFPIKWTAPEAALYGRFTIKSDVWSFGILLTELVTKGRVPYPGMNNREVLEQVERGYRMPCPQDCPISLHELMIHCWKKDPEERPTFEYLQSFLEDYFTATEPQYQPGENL
# method summary: phosphorylation enrichment, bacterial display (enrichment ratio); higher = better substrate or ligand; peptides without Tyr show the background
Answer False if phosphorylation enrichment is under 0.5, and True if it is 0.5 or more.

Worked cases, answers included:
| sequence code | assayed system | answer label |
| --- | --- | --- |
| LAEMNYVHQDL [EPHB1_Y740_R743Q] | Fyn (UniProt P06241) | True |
| IDGLEYLHSPG [STK11_Y166_Q170P] | Fyn (UniProt P06241) | False |
| TIMTDYNPNYC [ALK_Y1092] | Fyn (UniProt P06241) | False |
| VHVEVYDRPSP | Fyn (UniProt P06241) | True |
| LSGFGYRLSDQ [PDCD6_Y124] | Fyn (UniProt P06241) | True |

Confirm if phosphorylation enrichment reported for the sequence TRDVNYGWIIR [MT-CYB_Y75] is 0.5 or above.
False

State whether the measured phosphorylation enrichment reaches 0.5, counting equality as reaching it, for EVEPRYVVLFD [ERCC4_Y577_YF]
True

Threshold query (phosphorylation enrichment >= 0.5) on PSARTYCYKQE [KLHDC9_Y175]
True

Determine whether this sequence has phosphorylation enrichment no lower than 0.5: KNKNRSKNILP [PTPN11_Y279_Y279S]
True

API: above_or_equal(metric=phosphorylation enrichment, cutoff=0.5) for item EEGESYVCSSD [DCX_Y125]
True

Is it the case that RVVVPYEPPEV [TP53_Y220_S215R] has phosphorylation enrichment reaching or exceeding 0.5?
True

Can EFNLMYDGTKE [IRF6_Y97] be said to have phosphorylation enrichment at or above 0.5?
True

====

# assayed system: EPHB2 (UniProt P29323)
# Sequence (P29323 whole entry, looked up): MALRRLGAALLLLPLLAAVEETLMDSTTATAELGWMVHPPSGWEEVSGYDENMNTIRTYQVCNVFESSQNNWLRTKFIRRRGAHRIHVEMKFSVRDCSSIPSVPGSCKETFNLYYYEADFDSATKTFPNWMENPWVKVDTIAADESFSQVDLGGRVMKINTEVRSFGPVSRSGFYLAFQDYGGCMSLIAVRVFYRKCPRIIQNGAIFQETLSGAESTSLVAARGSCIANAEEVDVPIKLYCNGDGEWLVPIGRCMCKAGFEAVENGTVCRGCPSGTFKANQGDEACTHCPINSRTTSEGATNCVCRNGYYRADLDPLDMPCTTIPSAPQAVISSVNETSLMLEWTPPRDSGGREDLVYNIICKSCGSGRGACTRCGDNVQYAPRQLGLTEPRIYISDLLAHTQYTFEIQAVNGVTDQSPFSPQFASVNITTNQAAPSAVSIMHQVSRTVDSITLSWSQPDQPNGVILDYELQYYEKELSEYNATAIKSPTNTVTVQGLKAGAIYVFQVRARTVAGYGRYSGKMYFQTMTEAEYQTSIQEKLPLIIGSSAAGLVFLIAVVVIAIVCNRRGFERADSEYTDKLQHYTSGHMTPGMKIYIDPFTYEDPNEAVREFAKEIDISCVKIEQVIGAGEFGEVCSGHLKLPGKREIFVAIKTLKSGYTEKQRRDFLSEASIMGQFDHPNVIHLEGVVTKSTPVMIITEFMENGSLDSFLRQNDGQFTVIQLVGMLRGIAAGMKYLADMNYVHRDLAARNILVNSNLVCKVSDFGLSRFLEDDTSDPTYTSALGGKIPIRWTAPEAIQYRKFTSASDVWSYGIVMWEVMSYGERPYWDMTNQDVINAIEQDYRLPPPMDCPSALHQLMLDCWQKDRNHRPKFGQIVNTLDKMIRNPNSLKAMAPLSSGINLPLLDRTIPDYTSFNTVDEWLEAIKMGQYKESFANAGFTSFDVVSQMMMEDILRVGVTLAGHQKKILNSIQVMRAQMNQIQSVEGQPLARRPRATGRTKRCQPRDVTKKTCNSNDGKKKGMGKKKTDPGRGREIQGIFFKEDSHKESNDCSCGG
# method summary: phosphorylation enrichment, bacterial display (enrichment ratio); higher = better substrate or ligand; peptides without Tyr show the background
Reported phosphorylation enrichment values follow for various sequences
Answer with a number only.

| sequence code | phosphorylation enrichment |
| --- | --- |
| ARMTNCGLPRF [TSPAN12_Y138_Y138C_YF] | 0.421 |

For EPHB2 (UniProt P29323), provide phosphorylation enrichment of SSREEYFIGGG [GYPC_Y126_K124E] please.
0.44

Give phosphorylation enrichment (EPHB2 (UniProt P29323)) of the following sequence: PGGKIYISPLK [RB1_Y805_N803K]
0.763

For EPHB2 (UniProt P29323), provide phosphorylation enrichment of `CHKRTYKVTGL` please.
0.357

Record lookup: for EPHB2 (UniProt P29323), what phosphorylation enrichment belongs to MPQNEYIELHC [NSA2_Y6_R11C] ?
0.862

// map KTVQDYLEKFF [MMP8_Y36_YF] to recorded phosphorylation enrichment (system: EPHB2 (UniProt P29323))
0.602

Hi! What's the reported phosphorylation enrichment for LDLSFYPTSSS [EMD_Y182_YF] on EPHB2 (UniProt P29323)?
0.904

Item GMEIVYVYVKK [DNAI2_Y5] with EPHB2 (UniProt P29323) - phosphorylation enrichment?
0.665

Look up phosphorylation enrichment with EPHB2 (UniProt P29323) for this sequence: VHNLDYYKMTT [FGFR3_Y647_K650M]
0.895

I'm curious: which phosphorylation enrichment was measured for EKLQQYLAPGM [EPHB3_Y600_I601L] tested on EPHB2 (UniProt P29323)?
0.489

Give phosphorylation enrichment (EPHB2 (UniProt P29323)) of the following sequence: `AKIDGYITSFR`
0.411

====

# assayed system: EPHB2 (UniProt P29323)
# method summary: phosphorylation enrichment, bacterial display (enrichment ratio); higher = better substrate or ligand; peptides without Tyr show the background
readout: phosphorylation enrichment
Form field (numeric): enter value without unit.

These recorded examples may help you get a feel for the data.
| sequence code | phosphorylation enrichment |
| --- | --- |
| MRTMGYMPREM [CABP5_Y62_T65R] | 0.374 |
| KAPVDYIRKLQ [MITF_Y360_S357P] | 0.436 |
| KDHPDYEFQPR [SOX9_Y172_K173E_YF] | 0.585 |

For GADDSYFTVRS [ZAP70_Y492_A495V_YF] , what is its reported phosphorylation enrichment?
0.498

For the sequence MAALSYVSEIG [BPIFB2_Y36_K31M] , what phosphorylation enrichment is on record?
0.521

Item IGVDSYSVCKR [RPS6KA3_Y433_G431D] has what recorded phosphorylation enrichment?
0.418

If you can, please state the reported phosphorylation enrichment value of EVEPRYVVLYD [ERCC4_Y577] .
3.44

Could you tell me which phosphorylation enrichment is on file for RLVTRYIYNRE [HLA-DQB1_Y62_Y58L] ?
0.481

If you can, please state the reported phosphorylation enrichment value of GEVKAYGAGLL [TH_Y419] .
0.459

Please look up its phosphorylation enrichment: STEVIYQPRRK [STK11_Y36]
0.527

Consider the sequence AFRHGYFDEEM [PLEC_Y2971_R2969H_YF] and give its measured phosphorylation enrichment.
0.59

What phosphorylation enrichment value was documented for this sequence, MSRYIYSTDYY [NTRK1_Y676_D674Y] ?
11.4

Need phosphorylation enrichment of QDEHGYIFRCF [HSPB1_Y133_S135F] , thanks.
0.762

====

# assayed system: c-Src SH2;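 note: peptide library displayed on the E. coli surface as eCPX fusions, selected cells deep-sequenced, score is each peptide's frequency after selection divided by its frequency in the input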
# method summary: SH2 binding enrichment of the phosphorylated peptide, bacterial display (enrichment ratio); higher = better substrate or ligand; peptides without Tyr show the background
Recorded SH2 binding enrichment determines the group label, using zone 1 (below 0.5), zone 2 (0.5 to below 0.7), zone 3 (0.7 or more)

Example cases with answers are listed next.
| sequence code | answer label |
| --- | --- |
| STEAIYWRFSK [SH3PXD2B_Y42_R43W_YF] | zone 1 |
| KLPFLYDDPFS [GPX2_Y127_P126L_YF] | zone 3 |
| LSDGPYSSPFE [EPOR_Y485_N487S_YF] | zone 3 |
| FSSLGYPPPEG [ZSWIM4_Y87_YF] | zone 2 |

Which class does GADDSYFTVRS [ZAP70_Y492_A495V_YF] fall in?
zone 2

Quick check: band for WKEIEYEVVPD [CPS1_Y634_R638P]
zone 1

Which bin, given its SH2 binding enrichment, does QLQTTYPSSDN [MAX_Y115_N114T] occupy?
zone 1

# bin lookup: classify TTKAKYKTPIY [PLD2_Y573_T577I] by its SH2 binding enrichment
zone 3

Which bin, given its SH2 binding enrichment, does GEKKAYVRLAP [RPL23A_Y137] occupy?
zone 2

For this sequence, which bin applies? YEREQYADRAR [RBM4_Y355]
zone 2

State the class of the sequence shown: TGDRPYVCPFD [YY1_Y383]
zone 3

Lab note: sort GFDHSYFFIAT [ESD_Y262_YF] into the matching SH2 binding enrichment band.
zone 2

For this sequence, which bin applies? EQLQSYQAEII [KRT33A_Y268]
zone 1
